The reader will find reported logP values listed item by item below.
- testDescription: physchem
- experimentalContext: octanol/water
- Description: Octanol-water partition coefficient, log P of the compound
property: logP

molecule | testValue
O=C(O)c1cc(I)ccc1O | 3.52
O=C(O)c1cccc(O)c1 [3-HYDROXYBENZOIC ACID] | 1.5
O=C(O)c1c(O)cccc1O | 2.2
O=C(O)c1ccc(O)cc1O [2,4-DIHYDROXYBENZOIC ACID] | 1.6
O=C(O)c1cc([N+](=O)[O-])cc([N+](=O)[O-])c1O | 2.21
O=C(O)c1cc(Br)cc(Br)c1O | 4.21

---

The reader will find reported logD values listed item by item below.
- testDescription: Octanol-aqueous phase distribution coefficient, log D of the compound at pH 5
- Assay type: physicochemical

compound | logD
O=[N+]([O-])c1ccc(O)cc1 [P-NITROPHENOL] | 1.96
CC(C)CCc1cc([N+](=O)[O-])c(O)c([N+](=O)[O-])c1 | 2.82
CC(C)CCCCCc1cc([N+](=O)[O-])c(O)c([N+](=O)[O-])c1 | 4.32
Cc1cc([N+](=O)[O-])c(O)c([N+](=O)[O-])c1C | 1.64
CC(C)Cc1cc([N+](=O)[O-])c(O)c([N+](=O)[O-])c1 | 2.52
